Measured on: HLA-B7 (human), P01889
Method notes: competition, FACS 4C
Applied conditions: modification not given
pIC50: −log10 of the molar value.
Value type: pIC50

Consider RPRRWKLQVL [PRAME 113-122] . Its measured pIC50 is > 6.00
